Target: recombinant human KLK5 (Homo sapiens, UniProt Q9Y337)
Construct: purchased R & D Systems Inc
Sequence (Q9Y337 23-293): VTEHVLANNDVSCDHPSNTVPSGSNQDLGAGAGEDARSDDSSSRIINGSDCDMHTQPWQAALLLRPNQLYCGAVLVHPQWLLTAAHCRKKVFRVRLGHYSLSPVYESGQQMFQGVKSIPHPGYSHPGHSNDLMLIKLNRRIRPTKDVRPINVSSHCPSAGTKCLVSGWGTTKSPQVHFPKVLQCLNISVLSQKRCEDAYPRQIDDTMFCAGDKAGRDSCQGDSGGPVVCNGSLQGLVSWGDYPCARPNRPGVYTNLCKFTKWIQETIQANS
Assay: KLK5 enzymatic assay (Boc-V-P-R-AMC fluorogenic substrate)
Format: biochemical
Conditions: 10 μM test compound; KLK5 8.1 nM; substrate 100 μM; mean ± SEM of triplicate
propertyName: Anti-KLK5 Activity % Inhibition (%)

[[record]]
compound = "CC1(C)CCC2(CO)C(=C3C=CC4C5(C)CCC(O)C(C)(CO)C5CCC4(C)C3(C)CC2O)C1 (stereo not drawn) [Saikogenin A]"
measurementtarget = "recombinant human KLK5 (Homo sapiens, UniProt Q9Y337)"
readoutvalue = 24.3


(I) CC1OC(OC2CCC3(C)C(CCC4(C)C3C=CC3=C5CC(C)(C)CCC5(CO)C(O)CC34C)C2(C)CO)C(O)C(OC2OC(CO)C(O)C(O)C2O)C1O (stereo not drawn)
(II) CC1(C)CCC2(CO)C(=C3C=CC4C5(C)CCC(O)C(C)(CO)C5CCC4(C)C3(C)CC2O)C1 (stereo not drawn) [Saikogenin D]
// compare measured Anti-KLK5 Activity % Inhibition between I and II ; output the lower one Kindly state the label of the option you pick. II

---

Molecular target: recombinant human KLK5 (Homo sapiens, UniProt Q9Y337)
Construct: purchased R & D Systems Inc
Sequence (Q9Y337 23-293): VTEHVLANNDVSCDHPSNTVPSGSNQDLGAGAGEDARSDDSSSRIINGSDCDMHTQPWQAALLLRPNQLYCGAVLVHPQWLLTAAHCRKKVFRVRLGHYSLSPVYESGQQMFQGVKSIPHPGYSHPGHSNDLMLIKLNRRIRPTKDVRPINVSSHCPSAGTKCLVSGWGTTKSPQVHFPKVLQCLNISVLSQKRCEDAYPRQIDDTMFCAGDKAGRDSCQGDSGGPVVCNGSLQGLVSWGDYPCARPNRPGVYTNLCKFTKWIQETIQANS
Assay: KLK5 enzymatic assay (Boc-V-P-R-AMC fluorogenic substrate)
Format: biochemical
Settings: 10 μM test compound; KLK5 8.1 nM; substrate 100 μM; mean ± SEM of triplicate; read-out: Anti-KLK5 Activity % Inhibition
propertyName: inhibition at 10 µM (%)

[[record]]
molecule = "C[C@H]1O[C@@H](O[C@H]2CC[C@@]3(C)[C@@H](CC[C@]4(C)[C@@H]3C=C[C@]35OC[C@@]6(CCC(C)(C)C[C@H]63)[C@@H](O)C[C@]54C)[C@]2(C)CO)[C@H](O)[C@@H](O[C@@H]2O[C@H](CO)[C@@H](O)[C@H](O)[C@H]2O)[C@H]1O [Saikosaponin a]"
measurementtarget = "recombinant human KLK5 (Homo sapiens, UniProt Q9Y337)"
propertyname = "inhibition at 10 µM"
readoutvalue = 4.3

[[record]]
molecule = "C=C(CC[C@@H](C(=O)O)C1[C@H](O)C[C@@]2(C)C3=CCC4C(C)(CCC(OC(C)=O)C4(C)C)C3=CCC12C)C(C)C (some centres unmarked) [Dehydropachymic acid]"
measurementtarget = "recombinant human KLK5 (Homo sapiens, UniProt Q9Y337)"
propertyname = "inhibition at 10 µM"
readoutvalue = 33.9

[[record]]
molecule = "C=C(C)[C@@H]1CC[C@]2(C(=O)O)CC[C@]3(C)[C@H](CC[C@@H]4[C@@]5(C)CC[C@H](O)C(C)(C)[C@@H]5CC[C@]43C)[C@@H]12 [Betulinic acid]"
measurementtarget = "recombinant human KLK5 (Homo sapiens, UniProt Q9Y337)"
propertyname = "inhibition at 10 µM"
readoutvalue = 5.5


(P) CC1(C)CCC2(C(=O)O)C(O)CC3(C)C(=CCC4C5(C)CC(O)C(O)C(C)(CO)C5CCC43C)C2C1 (centres unmarked) [Polygalacic acid]
(Q) C[C@@H]1C[C@H]2[C@@H]3CCC4=CC(=O)C=C[C@]4(C)[C@@]3(F)[C@@H](O)C[C@]2(C)[C@@]1(O)C(=O)CO [Dexamethasone, reference compound]
Sorting ascending by inhibition at 10 µM, which comes first: P or Q ? # respond with the chosen item's label Q

---

Molecular target: recombinant human KLK5 (Homo sapiens, UniProt Q9Y337)
Construct: purchased R & D Systems Inc
Test: KLK5 enzymatic assay (Boc-V-P-R-AMC fluorogenic substrate)
Assay type: biochemical
Details: 10 μM test compound; KLK5 8.1 nM; substrate 100 μM; mean ± SEM of triplicate; read-out: Anti-KLK5 Activity % Inhibition
propertyName: inhibition at 10 µM (%)

[[record]]
molecule = "C=C(CC[C@@H](C(=O)O)[C@H]1[C@H](O)C[C@@]2(C)C3=C(CC[C@]12C)[C@@]1(C)CC[C@H](OC(C)=O)C(C)(C)[C@@H]1CC3)C(C)C"
propertyname = "inhibition at 10 µM"
readoutvalue = 56.2


(1) CC1(C)CCC2(C(=O)O)C(C1)C1=CCC3C4(C)CC(O)C(O)C(CO)(CO)C4CCC3(C)[C@]1(C)C[C@H]2O (stereo partly drawn)
(2) CC1OC(OC2C(COC3OC(CO)C(O)C(O)C3O)OC(OC3CCC4(C)C(CCC5(C)C4C=CC46OCC7(CCC(C)(C)CC74)[C@@H](O)C[C@@]56C)C3(C)C)C(O)C2O)C(O)C(O)C1O (stereo partly drawn)
Looking only at measured inhibition at 10 µM, which entry is lower, 1 or 2 ? Output the label that corresponds to your choice. 2
